Biological target: human VPS34 (Homo sapiens (Human), UniProt Q8NEB9)
Sequence (Q8NEB9 whole entry): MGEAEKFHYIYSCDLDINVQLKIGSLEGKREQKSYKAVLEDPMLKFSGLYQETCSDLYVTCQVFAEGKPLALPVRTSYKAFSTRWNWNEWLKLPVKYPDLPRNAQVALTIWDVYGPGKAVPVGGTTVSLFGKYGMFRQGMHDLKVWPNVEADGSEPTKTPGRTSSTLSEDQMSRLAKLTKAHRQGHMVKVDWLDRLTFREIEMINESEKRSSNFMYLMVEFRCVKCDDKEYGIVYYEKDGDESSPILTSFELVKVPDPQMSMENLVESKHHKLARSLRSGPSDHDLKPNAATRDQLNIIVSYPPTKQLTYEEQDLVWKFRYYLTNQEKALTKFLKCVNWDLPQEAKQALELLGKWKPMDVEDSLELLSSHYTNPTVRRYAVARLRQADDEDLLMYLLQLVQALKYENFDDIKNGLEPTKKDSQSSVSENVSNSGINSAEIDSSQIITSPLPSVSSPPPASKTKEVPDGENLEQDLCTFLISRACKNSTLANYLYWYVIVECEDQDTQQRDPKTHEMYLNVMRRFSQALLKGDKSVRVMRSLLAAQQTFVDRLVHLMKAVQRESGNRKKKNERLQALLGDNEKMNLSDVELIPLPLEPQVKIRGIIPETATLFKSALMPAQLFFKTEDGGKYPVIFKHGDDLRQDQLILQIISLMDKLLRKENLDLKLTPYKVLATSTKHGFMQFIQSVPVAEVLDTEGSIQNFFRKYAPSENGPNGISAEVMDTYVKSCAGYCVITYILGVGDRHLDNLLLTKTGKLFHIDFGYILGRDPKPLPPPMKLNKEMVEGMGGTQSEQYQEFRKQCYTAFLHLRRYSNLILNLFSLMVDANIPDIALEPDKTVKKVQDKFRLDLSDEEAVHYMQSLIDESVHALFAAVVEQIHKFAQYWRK
Assay: Human VPS34 enzyme assay (Adapta TR-FRET ADP detection)
Format: biochemical
Conditions: IC50 range class
Property measured: IC50

compound=CC(=O)Nc1cc(-c2cnc3c(c2)c(S(=O)(=O)N2CCCC2)cn3C)ccn1 value_reported="10 to 50 nM"
compound=Cc1nccc(Nc2cc(-c3cnc(Cl)c(C(=O)N4CCC4)c3)ccn2)n1 value_reported="10 to 50 nM"
compound=CC(=O)Nc1cc(-c2cnc(N)c(S(C)(=O)=O)c2)ccn1 value_reported="10 to 50 nM"
compound=Cc1ncc(-c2ccnc(NC(=O)C3CC3)c2)cc1C(=O)N(C)C12CC(C1)C2 value_reported="50 to 100 nM"

Query string: Please report the recorded IC50 for CC(=O)Nc1cc(-c2cnc(C)c(NS(=O)(=O)N3CC4CCC3C4)c2)ccn1 (centres unmarked) .
Result string: 10 to 50 nM

Query string: Please report the recorded IC50 for `CNc1ncc(-c2ccnc(NC(C)=O)c2)cc1S(=O)(=O)Nc1ccccc1` .
Result string: < 10 nM

Query string: Please report the recorded IC50 for `CC(=O)Nc1cc(-c2cnc(N)c(S(=O)(=O)Nc3ccc(F)cc3F)c2)ccn1` .
Result string: < 10 nM

Query string: Please report the recorded IC50 for `CC(=O)Nc1cc(-c2cc(NS(=O)(=O)c3ccc(F)cc3F)c(C)[n+]([O-])c2)ccn1` .
Result string: 10 to 50 nM

* * *

// pIC50 lookup, one value per entry
Target: human VPS34 (Homo sapiens (Human))
Assay: Human VPS34 enzyme assay (Adapta TR-FRET ADP detection)
Format: biochemical
Settings: IC50 range class
pIC50: −log10 of the molar value.

Some molecules with recorded pIC50:
molecule="CCCCS(=O)(=O)Nc1cc(-c2ccnc(NC(C)=O)c2)cnc1C [Compound I-373]" system_name="human VPS34 (Homo sapiens (Human))" property_measured=pIC50 value_reported="7.30 to 8.00"
molecule="Cc1nccc(Nc2cc(-c3cnc(C)c(Oc4ccccc4)c3)ccn2)n1 [Compound I-475]" system_name="human VPS34 (Homo sapiens (Human))" property_measured=pIC50 value_reported="7.30 to 8.00"
molecule="Cc1c(-c2ccnc(Nc3ccnc(C4CC4)n3)c2)cnc(Cl)c1C(=O)N1CC(C)(C)C1 [Compound I-466]" system_name="human VPS34 (Homo sapiens (Human))" property_measured=pIC50 value_reported="7.30 to 8.00"
molecule="CC(=O)Nc1cc(-c2cnc(C)c(NS(=O)(=O)c3cc(F)ccc3F)c2)ccn1 [Compound I-52]" system_name="human VPS34 (Homo sapiens (Human))" property_measured=pIC50 value_reported="> 8.00"
molecule="COc1ncc(-c2ccnc(NC(C)=O)c2)c(C)c1NS(=O)(=O)N(C)C [Compound I-268]" system_name="human VPS34 (Homo sapiens (Human))" property_measured=pIC50 value_reported="< 7.00"
molecule="CC(=O)Nc1cc(-c2cncc(S(=O)(=O)Nc3ccccc3)c2)ccn1 [Compound I-459]" system_name="human VPS34 (Homo sapiens (Human))" property_measured=pIC50 value_reported="7.30 to 8.00"

Query string: Please report the recorded pIC50 for CC(=O)Nc1cc(-c2cc(NS(=O)(=O)c3ccc(F)cc3F)c3ccnn3c2)ccn1 [Compound I-404] .
Result string: 7.30 to 8.00

Query string: Please report the recorded pIC50 for COC(=O)Nc1cc(-c2cncc(S(=O)(=O)N3CCOCC3)c2)ccn1 [Compound I-332] .
Result string: 7.30 to 8.00
